Test: In vitro cytotoxicity assay (resazurin)
Format: cell-based
Settings: human, HeLa cells; 20 µM compound, 24 h, % cell viability relative to untreated control; read-out: % Viability at 20 µM (SD) HeLa Cell
Property name: viability at 24 h, 20 µM (%)
Respond numerically; units are % and should not be typed.

>  <Molecule>
COc1ccc(/C=C2\CCc3ccccc3C2=O)cc1 [Compound 4]

>  <Readout units>
%

>  <Experimental result>
76

$$$$

Query block: Quick check: viability at 24 h, 20 µM of COc1ccc2c(c1)C(=O)/C(=C/c1ccsc1)CC2 [Compound 35] ?
Result block: 122

Query block: Here is the next molecule: O=C1/C(=C/c2ccc(Br)cc2)CCc2ccc(O)cc21 [Compound 16]
Result block: 62

Query block: Here is the next molecule: O=C1/C(=C/c2ccccc2)CCc2cc(O)ccc21 [Compound 7]
Result block: 54

Query block: Here is the next molecule: O=C1/C(=C/c2ccc(F)cc2)CCc2ccc(O)cc21 [Compound 12]
Result block: 29

Query block: Here is the next molecule: COc1ccc2c(c1)C(=O)/C(=C/c1ccccc1)CC2 [Compound 10]
Result block: 65

Query block: Here is the next molecule: N#Cc1cccc(/C=C2\CCc3ccccc3C2=O)c1 [Compound 1]
Result block: 87

----------
System: 427 Trypanosoma brucei brucei trypomastigotes
Assay: In vitro anti-trypanosomal assay (resazurin)
Assay type: cell-based
Details: 20 µM compound, 48 h, % parasite viability relative to untreated control
Property name: % Viability at 20 µM (SD) T.b. brucei

>  <Structure as smiles>
O=C1/C(=C/c2cccc(Cl)c2)CCc2ccc(O)cc21

>  <% Viability at 20 µM (SD) T.b. brucei>
0.6 (0.01) %

$$$$
>  <Structure as smiles>
COc1ccc(/C=C2\CCc3ccc(O)cc3C2=O)cc1

>  <% Viability at 20 µM (SD) T.b. brucei>
0.2 (0.1) %

$$$$
>  <Structure as smiles>
O=C1/C(=C/c2ccccc2)CCc2c(O)cccc21

>  <% Viability at 20 µM (SD) T.b. brucei>
0.5 (0.1) %

$$$$
>  <Structure as smiles>
O=C1/C(=C/c2ccc(Cl)cc2)CCc2ccccc21

>  <% Viability at 20 µM (SD) T.b. brucei>
26 (8) %

$$$$
>  <Structure as smiles>
COc1ccc2c(c1)C(=O)/C(=C/c1ccccn1)CC2

>  <% Viability at 20 µM (SD) T.b. brucei>
−0.4 (0.2) %

$$$$

Query block: Reported % Viability at 20 µM (SD) T.b. brucei for 427 Trypanosoma brucei brucei trypomastigotes, given O=C1/C(=C/c2cccc(Br)c2)CCc2ccc(O)cc21 ?
Result block: 1.2 (0.31) %

Query block: Here is the next compound: COc1ccc2c(c1)C(=O)/C(=C/c1cccs1)CC2
Result block: 32 (9) %

----------
Test system: 427 Trypanosoma brucei brucei trypomastigotes
Test: In vitro anti-trypanosomal assay (resazurin)
Assay type: cell-based
Conditions: 20 µM compound, 48 h, % parasite viability relative to untreated control
Property name: % Viability at 20 µM (SD) T.b. brucei

// worked examples, % Viability at 20 µM (SD) T.b. brucei included
>  <Molecule>
N#Cc1cccc(/C=C2\CCc3ccc(N)cc3C2=O)c1 [Compound 2]

>  <% Viability at 20 µM (SD) T.b. brucei>
95 (3) %

$$$$
>  <Molecule>
O=C1/C(=C/c2cccc(Cl)c2)CCc2ccccc21 [Compound 17]

>  <% Viability at 20 µM (SD) T.b. brucei>
0.2 (0.3) %

$$$$
>  <Molecule>
O=C1/C(=C/c2ccccc2)CCc2ccc(O)cc21 [Compound 9]

>  <% Viability at 20 µM (SD) T.b. brucei>
−4 (0.3) %

$$$$
>  <Molecule>
O=C1/C(=C/c2cccnc2)CCc2ccccc21 [Compound 25]

>  <% Viability at 20 µM (SD) T.b. brucei>
−0.7 (0.4) %

$$$$

Now, please, on to the next molecule.
Query block: Quick check: % Viability at 20 µM (SD) T.b. brucei of O=C1/C(=C/c2ccccc2)CCc2ccccc21 [Compound 3] ?
Result block: 43 (3) %

----------
Recorded % Viability at 20 µM (SD) T.b. brucei, one value per entry.
Tested on: 427 Trypanosoma brucei brucei trypomastigotes
Assay: In vitro anti-trypanosomal assay (resazurin)
Format: cell-based
Settings: 20 µM compound, 48 h, % parasite viability relative to untreated control

// worked examples, % Viability at 20 µM (SD) T.b. brucei included
>  <Structure as smiles>
O=C1/C(=C/c2ccc(Cl)cc2)CCc2ccc(O)cc21

>  <% Viability at 20 µM (SD) T.b. brucei>
0.1 (0.1) %

$$$$
>  <Structure as smiles>
CN(C)c1ccc(/C=C2\CCc3ccc(O)cc3C2=O)cc1

>  <% Viability at 20 µM (SD) T.b. brucei>
25 (2) %

$$$$
>  <Structure as smiles>
O=C1/C(=C/c2cccc(F)c2)CCc2ccc(O)cc21

>  <% Viability at 20 µM (SD) T.b. brucei>
−0.9 (0.1) %

$$$$
>  <Structure as smiles>
COc1ccc2c(c1)C(=O)/C(=C/c1ccco1)CC2

>  <% Viability at 20 µM (SD) T.b. brucei>
31 (5) %

$$$$

Now, please, on to the next compound.
Query block: Quick check: % Viability at 20 µM (SD) T.b. brucei of COc1ccc2c(c1)C(=O)/C(=C/c1cccnc1Cl)CC2 ?
Result block: 98 (2) %

----------
Recorded % Viability at 20 µM (SD) HeLa Cell, one value per entry.
Test system: HeLa cells
Experiment: In vitro cytotoxicity assay (resazurin)
Type: cell-based
Settings: 20 µM compound, 24 h, % cell viability relative to untreated control

// worked examples, % Viability at 20 µM (SD) HeLa Cell included
>  <Compound>
O=C1/C(=C/c2cccnc2)CCc2ccccc21 [Compound 25]

>  <% Viability at 20 µM (SD) HeLa Cell>
24 (0.4) %

$$$$
>  <Compound>
COc1ccc2c(c1)C(=O)/C(=C/c1ccc[nH]1)CC2 [Compound 29]

>  <% Viability at 20 µM (SD) HeLa Cell>
97 (5) %

$$$$
>  <Compound>
O=c1c(Cc2ccc(Cl)cc2)csc2ccccc12 [Compound 41]

>  <% Viability at 20 µM (SD) HeLa Cell>
109 (7) %

$$$$
>  <Compound>
O=C1/C(=C/c2ccc(F)cc2)CCc2ccccc21 [Compound 5]

>  <% Viability at 20 µM (SD) HeLa Cell>
100 (2) %

$$$$
>  <Compound>
O=C1/C(=C/c2ccc(Cl)cc2)CSc2ccccc21 [Compound 39]

>  <% Viability at 20 µM (SD) HeLa Cell>
8 (2) %

$$$$
>  <Compound>
O=C1/C(=C/c2cccc(Br)c2)CCc2ccc(O)cc21 [Compound 18]

>  <% Viability at 20 µM (SD) HeLa Cell>
26 (3) %

$$$$
>  <Compound>
N#Cc1cccc(/C=C2\CCc3ccc(N)cc3C2=O)c1 [Compound 2]

>  <% Viability at 20 µM (SD) HeLa Cell>
77 (2) %

$$$$

Query block: Quick check: % Viability at 20 µM (SD) HeLa Cell of O=C1/C(=C/c2ccccc2)CCc2ccc(O)cc21 [Compound 9] ?
Result block: 9 (0.1) %

----------
Recorded viability at 24 h, 20 µM, one value per entry.
Experiment: In vitro cytotoxicity assay (resazurin)
Format: cell-based
Details: human, HeLa cells; 20 µM compound, 24 h, % cell viability relative to untreated control; read-out: % Viability at 20 µM (SD) HeLa Cell
Respond numerically; units are % and should not be typed.

// worked examples, viability at 24 h, 20 µM included
>  <Structure as smiles>
COc1ccc2c(c1)C(=O)/C(=C/C1CCCCC1)CC2

>  <viability at 24 h, 20 µM [%]>
92

$$$$
>  <Structure as smiles>
COc1ccc2c(c1)C(=O)/C(=C/C1CCCC1)CC2

>  <viability at 24 h, 20 µM [%]>
85

$$$$

Query block: Quick check: viability at 24 h, 20 µM of O=C1/C(=C/c2cccc(F)c2)CCc2ccccc21 ?
Result block: 121

Query block: Here is the next molecule: Cc1ccc(/C=C2\CCc3ccc(O)cc3C2=O)cc1
Result block: 69

----------
Recorded % Viability at 20 µM (SD) T.b. brucei, one value per entry.
Test system: 427 Trypanosoma brucei brucei trypomastigotes
Experiment: In vitro anti-trypanosomal assay (resazurin)
Format: cell-based
Conditions: 20 µM compound, 48 h, % parasite viability relative to untreated control

// worked examples, % Viability at 20 µM (SD) T.b. brucei included
>  <Structure as smiles>
O=C1/C(=C/c2ccc(O)cc2)CCc2ccc(O)cc21

>  <Target>
427 Trypanosoma brucei brucei trypomastigotes

>  <% Viability at 20 µM (SD) T.b. brucei>
1 (0.2) %

$$$$
>  <Structure as smiles>
O=C1/C(=C/c2ccc(Cl)c(Cl)c2)CCc2ccc(O)cc21

>  <Target>
427 Trypanosoma brucei brucei trypomastigotes

>  <% Viability at 20 µM (SD) T.b. brucei>
0.9 (0.2) %

$$$$

Now, please, on to the next compound.
Query block: Quick check: % Viability at 20 µM (SD) T.b. brucei of COc1ccc2c(c1)C(=O)/C(=C/c1ccc[nH]1)CC2 ?
Result block: 103 (1) %
